Percent Effect reference
tested.system: Sialic acid-binding Ig-like lectin 9 (Homo sapiens) (UniProt Q9Y336)
Sequence (Q9Y336 whole entry): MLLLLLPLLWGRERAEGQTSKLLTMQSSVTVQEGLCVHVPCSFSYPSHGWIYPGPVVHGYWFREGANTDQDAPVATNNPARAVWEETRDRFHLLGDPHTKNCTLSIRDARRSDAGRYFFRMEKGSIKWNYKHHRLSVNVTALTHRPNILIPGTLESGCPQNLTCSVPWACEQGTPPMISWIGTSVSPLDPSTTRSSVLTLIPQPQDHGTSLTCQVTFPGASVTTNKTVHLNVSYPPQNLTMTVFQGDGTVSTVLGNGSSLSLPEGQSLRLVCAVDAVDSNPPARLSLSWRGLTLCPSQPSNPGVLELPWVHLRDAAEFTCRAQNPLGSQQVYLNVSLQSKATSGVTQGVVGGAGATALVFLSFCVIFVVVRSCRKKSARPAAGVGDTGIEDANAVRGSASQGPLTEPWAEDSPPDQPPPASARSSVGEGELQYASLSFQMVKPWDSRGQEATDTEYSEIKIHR
protocol: Hs-Siglec9 ALPHAscreen SOP 20170721
Set-up: scale not given: direction of the effect not stated beside the values
test.settings: 10 µM
Form entry: value (%) — number only.

Consider the worked cases shown below.
| molecule | tested.system | uom | recorded.number |
| --- | --- | --- | --- |
| CC(C)CN1CCC2(C1)CN(c1ncccn1)C2 | Sialic acid-binding Ig-like lectin 9 (Homo sapiens) (UniProt Q9Y336) | % | -5.1 |
| COCCN1CCC2(COCc3cnc(N4CCOCC4)nc32)C1 (centres undefined) | Sialic acid-binding Ig-like lectin 9 (Homo sapiens) (UniProt Q9Y336) | % | -2.45 |
| CCN(CC)C(=O)c1ccc(NC(=O)CNc2ccc(F)cc2Cl)cc1 | Sialic acid-binding Ig-like lectin 9 (Homo sapiens) (UniProt Q9Y336) | % | 3.25 |

Problem: Give its Percent Effect value. Item: Cc1cc(CN2CC[C@H]3C[C@H](C(=O)N(C)C)O[C@@H]3C2)no1
Result: 14.4

Problem: I am curious: what Percent Effect value has been reported for Cc1ccc(N2CCO[C@H]3CN(Cc4cnn(C)c4)C[C@H]32)nn1 ?
Result: -4.13

Problem: Requested read-out: Percent Effect. Entry: c1ccc(N2CCCC3(CCN(Cc4cccs4)C3)C2)nc1 (centres undefined)
Result: -2.35

Problem: Find the recorded Percent Effect belonging to c1cc(CO[C@@H]2CC[C@H]3[C@H]2OCCN3Cc2ccoc2)ccn1 and report it.
Result: -7.31

Problem: Dear colleague, I am looking for the recorded Percent Effect of the following molecule: Cc1noc(C)c1CN1CCOC2(CCCN(c3nccs3)C2)C1 (centres undefined)
Result: 1.44

Problem: Query: Percent Effect; subject: CN(Cc1cccnc1)[C@@H]1CN(CC2CC2)[C@@H]2CCCO[C@H]12
Result: 2.23

Problem: Quick check: Percent Effect of COc1ccc(CN2C[C@@H]3OCCN(c4ncccn4)[C@@H]3C2)cc1 ?
Result: 2.48

Problem: Recorded Percent Effect of Cc1ccccc1CC(C)NCc1c(C)nn(C)c1N1CCOCC1 (centres undefined) , please.
Result: -1.05

Problem: What Percent Effect value was documented for this molecule, COCc1cncc2c1CCN(Cc1ccccn1)C2 ?
Result: -3.72

Problem: I would be grateful if you could share the reported Percent Effect for O=C1N(c2cncnc2)CCC12CCCN(Cc1ccccn1)C2 (centres undefined) .
Result: 8.64

Problem: I would be grateful if you could share the reported Percent Effect for c1ccc(CN2CC[C@H]3CO[C@H](CNc4ncccn4)[C@H]3C2)nc1 .
Result: 4.32

* * *

tested.system: Shiga toxin 2 (Escherichia coli O157:H7) (UniProt P09385+P09386)
protocol: E. coli 0.157:H7 Shiga Toxin SOP - stx2 screening assay
Type: functional
Parameters: scale not given: direction of the effect not stated beside the values
test.settings: 30 µM
Reported Percent Effect is given for each of the following compounds.
I only need the number, in %, no unit after it.

Solved cases below.
| compound | Percent Effect / % |
| --- | --- |
| Cc1nc(C)n(CC2CCCN(CCc3ccncc3)C2)n1 (centres undefined) | -14.2 |
| Cn1ncc2c(=O)[nH]c(CN3CCCC3c3cccs3)nc21 (centres undefined) | 3.97 |
| Cn1cc(CN2CCN(Cc3nccn3C)CC2)cn1 | -37.2 |
| Cc1ccc(CN2CC[C@H]3OCC[C@@H](C(=O)NC4CC4)[C@@H]3C2)o1 | -6.37 |

Problem: Name the recorded Percent Effect for Cc1cc(NC(=O)NCC(C)O)n(C)n1 (centres undefined) .
Result: -5.14

Problem: Could you tell me which Percent Effect is on file for OC(CN1CCC(c2ccn[nH]2)CC1)c1cccc(F)c1 (centres undefined) ?
Result: -2.5

Problem: Quick one: Percent Effect of Cc1cccc(-n2ncc(C(=O)N3CCn4c(C)nnc4C3)c2C)c1 ?
Result: 32.6

Problem: So what's the measured Percent Effect for this one? Cn1cccc1C(=O)N[C@@H]1CN(CC2CC2)[C@@H]2COC[C@@H]21
Result: -3.7

Problem: Could you tell me which Percent Effect is on file for CN(Cc1ccccc1)CC(O)Cn1cnc2ccccc2c1=O (centres undefined) ?
Result: -4.12

Problem: Fill in the blank: the reported Percent Effect of CC1c2ncc(CNC(=O)C3CC3)n2CCN1Cc1cnn(C)c1 (centres undefined) is ____.
Result: -27.6

Problem: Give its Percent Effect value. Item: O=C(NCc1ccc(F)cc1)N1CCC(C2OCCO2)CC1
Result: 1.94

Problem: Please report the recorded Percent Effect for Cc1nnc(CN2CCC(N(C)Cc3nnc(C4CC4)n3C)C2)o1 (centres undefined) .
Result: 18.5

Problem: Please give the measured Percent Effect for this compound: COc1ccc(Cl)cc1NCC(=O)NCCc1ccccn1
Result: 25.8

Problem: Returns the measured Percent Effect for the input compound. Input: O=C(c1cccnc1O)N(Cc1ccsc1)CC1CCCO1 (centres undefined)
Result: -27.4

Problem: Which Percent Effect reading was recorded for the compound CN1CC(=O)N(c2cnn(C)c2)CC12CCN(Cc1nccn1C)C2 (centres undefined) ?
Result: -23.4
